System Tested: rat μ opioid receptors (rMOR) (Rattus norvegicus, UniProt P33535)
Construct: expressed in transfected cells; host or cells: HN9.10 neuroblastoma cell line, pCDNA3, neomycin-selected clones
Sequence (P33535 whole entry): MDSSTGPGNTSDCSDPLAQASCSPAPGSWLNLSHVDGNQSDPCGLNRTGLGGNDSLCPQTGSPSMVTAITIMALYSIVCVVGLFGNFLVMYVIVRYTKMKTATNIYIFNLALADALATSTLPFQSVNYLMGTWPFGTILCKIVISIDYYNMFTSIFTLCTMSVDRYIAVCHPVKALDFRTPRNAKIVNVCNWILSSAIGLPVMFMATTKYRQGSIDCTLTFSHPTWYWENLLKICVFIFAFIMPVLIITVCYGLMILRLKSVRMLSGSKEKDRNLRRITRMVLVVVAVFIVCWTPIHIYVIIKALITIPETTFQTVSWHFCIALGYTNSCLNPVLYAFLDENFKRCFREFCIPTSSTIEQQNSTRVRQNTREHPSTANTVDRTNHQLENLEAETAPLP
Method Notes: Radioligand competition binding, [3H]DAMGO, rMOR membranes
Measurement Setup: read-out: Ki, rMOR, [3H]DAMGO
Peptide text beside a SMILES is read from it.
Measure: pKi
One number for each entry, as −log10 of the molar value.

INSERT INTO results (compound, measure, value_observed) VALUES
  ('CCCC[C@@H]1NC(=O)[C@H](Cc2ccccc2)NC(=O)CNC(=O)[C@H](NC(=O)[C@@H](N)Cc2ccc(O)cc2)CSSC[C@H](C(=O)N[C@@H](Cc2c[nH]c3ccccc23)C(=O)NCc2cc(C(F)(F)F)cc(C(F)(F)F)c2)NC(=O)[C@@H]2CCCN2C1=O [TY038, [D-Cys^2, D-Cys^7]TY027] (HELM PEPTIDE1{Y.[dC].G.F.[Nle].P.[dC].W.[FC(F)(F)c1cc(CN[*:1])cc(C(F)(F)F)c1]}$PEPTIDE1,PEPTIDE1,2:R3-7:R3$$$V2.0; N-terminus assumed)', 'pKi', 6.80);

Go through the items and report each one's pKi.
1. CC(C)C[C@H](NC(=O)[C@@H]1CCCN1C(=O)[C@@H]1CSSC[C@@H](NC(=O)[C@@H](N)Cc2ccc(O)cc2)C(=O)NCC(=O)N[C@@H](Cc2ccccc2)C(=O)N1)C(=O)N[C@@H](Cc1c[nH]c2ccccc12)C(=O)NCc1cc(C(F)(F)F)cc(C(F)(F)F)c1
2. CC(C)C[C@H](NC(=O)[C@@H]1CCCN1C(=O)[C@H](Cc1ccccc1)NC(=O)[C@H](Cc1ccccc1)NC(=O)CNC(=O)[C@@H](C)NC(=O)[C@@H](N)Cc1ccc(O)cc1)C(=O)N[C@@H](Cc1c[nH]c2ccccc12)C(=O)OCc1cc(C(F)(F)F)cc(C(F)(F)F)c1

Resp:
1. 6.70
2. 7.55

---

System Tested: Substance P receptors (guinea pig NK1) (Cavia porcellus, UniProt P30547)
Construct: from tissue; host or cells: guinea pig (Hartley) ileum LMMP, 1 μM naloxone present
Sequence (P30547 whole entry): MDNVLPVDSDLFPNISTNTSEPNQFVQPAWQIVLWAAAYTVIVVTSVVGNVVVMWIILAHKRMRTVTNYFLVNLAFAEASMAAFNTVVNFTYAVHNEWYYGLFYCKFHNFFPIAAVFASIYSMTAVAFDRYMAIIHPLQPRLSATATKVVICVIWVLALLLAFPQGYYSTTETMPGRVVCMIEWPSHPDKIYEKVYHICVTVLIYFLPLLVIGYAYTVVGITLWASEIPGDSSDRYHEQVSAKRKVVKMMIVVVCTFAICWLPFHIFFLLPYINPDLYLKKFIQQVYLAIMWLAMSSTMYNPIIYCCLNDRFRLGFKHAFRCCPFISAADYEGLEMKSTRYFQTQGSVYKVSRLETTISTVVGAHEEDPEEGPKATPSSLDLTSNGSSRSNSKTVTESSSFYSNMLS
Method Notes: Guinea pig isolated ileum (GPI) assay with substance P stimulation in presence of 1 μM naloxone
Measurement Setup: Substance P antagonist, GPI, Ke, in the presence of 1 μM naloxone
Lab note: compare Kb against 20 nM. Equal or greater, write met. Smaller, write not met.

# example entries with known answers
INSERT INTO measurements (smiles_data, qualitative_label) VALUES
  ('CC(C)C[C@H](NC(=O)[C@@H]1CCCN1C(=O)[C@H](Cc1ccccc1)NC(=O)CNC(=O)[C@@H](C)NC(=O)[C@@H](N)Cc1ccc(O)cc1)C(=O)N[C@@H](Cc1c[nH]c2ccccc12)C(=O)OCc1cc(C(F)(F)F)cc(C(F)(F)F)c1', 'not met'),
  ('CCCC[C@@H](C(=O)N1CCC[C@H]1C(=O)N[C@@H](CC(C)C)C(=O)N[C@@H](Cc1c[nH]c2ccccc12)C(=O)OCc1cc(C(F)(F)F)cc(C(F)(F)F)c1)N(C)C(=O)[C@H](Cc1ccccc1)NC(=O)CNC(=O)[C@@H](C)NC(=O)[C@@H](N)Cc1ccc(O)cc1', 'not met'),
  ('CSCC[C@H](NC(=O)[C@H](Cc1ccccc1)NC(=O)CNC(=O)[C@@H](C)NC(=O)[C@@H](N)Cc1ccc(O)cc1)C(=O)N1CCC[C@H]1C(=O)N[C@@H](CC(C)C)C(=O)N[C@@H](Cc1c[nH]c2ccccc12)C(=O)OCc1cc(C(F)(F)F)cc(C(F)(F)F)c1', 'met');

Req: Can `CC(C)C[C@H](NC(=O)[C@@H]1CCCN1C(=O)[C@H](Cc1ccccc1)NC(=O)[C@H](Cc1ccccc1)NC(=O)CNC(=O)[C@@H](C)NC(=O)[C@@H](N)Cc1ccc(O)cc1)C(=O)N[C@@H](Cc1c[nH]c2ccccc12)C(=O)OCc1cc(C(F)(F)F)cc(C(F)(F)F)c1` be said to have Kb at or above 20 nM?
Resp: not met

Req: Item: `CC(C)C[C@H](NC(=O)[C@@H]1CCCN1C(=O)[C@@H](Cc1ccccc1)NC(=O)[C@H](Cc1ccccc1)NC(=O)CNC(=O)[C@@H](C)NC(=O)[C@@H](N)Cc1ccc(O)cc1)C(=O)N[C@@H](Cc1c[nH]c2ccccc12)C(=O)OCc1cc(C(F)(F)F)cc(C(F)(F)F)c1`
Resp: met

Req: Item: `CCCC[C@H](NC(=O)[C@H](Cc1ccccc1)NC(=O)CNC(=O)[C@@H](C)NC(=O)[C@@H](N)Cc1ccc(O)cc1)C(=O)N1CCC[C@H]1C(=O)N[C@@H](CC(C)C)C(=O)N[C@@H](Cc1c[nH]c2ccccc12)C(=O)OCc1cc(C(F)(F)F)cc(C(F)(F)F)c1`
Resp: not met

Req: Item: `CC(C)C[C@H](NC(=O)[C@@H]1CCCN1C(=O)[C@H](Cc1ccccc1)NC(=O)CNC(=O)[C@@H](C)NC(=O)[C@@H](N)Cc1ccc(O)cc1)C(=O)N[C@@H](Cc1c[nH]c2ccccc12)C(=O)NCc1ccccc1`
Resp: met

Req: Item: `CC(C)C[C@H](NC(=O)[C@@H]1CCCN1C(=O)[C@H](CC(C)C)NC(=O)[C@H](Cc1ccccc1)NC(=O)CNC(=O)[C@@H](C)NC(=O)[C@@H](N)Cc1ccc(O)cc1)C(=O)N[C@@H](Cc1c[nH]c2ccccc12)C(=O)OCc1cc(C(F)(F)F)cc(C(F)(F)F)c1`
Resp: not met
